- TARGET_OR_TEST_SYSTEM: USP47 (UniProt Q96K76)
- Sequence (whole entry): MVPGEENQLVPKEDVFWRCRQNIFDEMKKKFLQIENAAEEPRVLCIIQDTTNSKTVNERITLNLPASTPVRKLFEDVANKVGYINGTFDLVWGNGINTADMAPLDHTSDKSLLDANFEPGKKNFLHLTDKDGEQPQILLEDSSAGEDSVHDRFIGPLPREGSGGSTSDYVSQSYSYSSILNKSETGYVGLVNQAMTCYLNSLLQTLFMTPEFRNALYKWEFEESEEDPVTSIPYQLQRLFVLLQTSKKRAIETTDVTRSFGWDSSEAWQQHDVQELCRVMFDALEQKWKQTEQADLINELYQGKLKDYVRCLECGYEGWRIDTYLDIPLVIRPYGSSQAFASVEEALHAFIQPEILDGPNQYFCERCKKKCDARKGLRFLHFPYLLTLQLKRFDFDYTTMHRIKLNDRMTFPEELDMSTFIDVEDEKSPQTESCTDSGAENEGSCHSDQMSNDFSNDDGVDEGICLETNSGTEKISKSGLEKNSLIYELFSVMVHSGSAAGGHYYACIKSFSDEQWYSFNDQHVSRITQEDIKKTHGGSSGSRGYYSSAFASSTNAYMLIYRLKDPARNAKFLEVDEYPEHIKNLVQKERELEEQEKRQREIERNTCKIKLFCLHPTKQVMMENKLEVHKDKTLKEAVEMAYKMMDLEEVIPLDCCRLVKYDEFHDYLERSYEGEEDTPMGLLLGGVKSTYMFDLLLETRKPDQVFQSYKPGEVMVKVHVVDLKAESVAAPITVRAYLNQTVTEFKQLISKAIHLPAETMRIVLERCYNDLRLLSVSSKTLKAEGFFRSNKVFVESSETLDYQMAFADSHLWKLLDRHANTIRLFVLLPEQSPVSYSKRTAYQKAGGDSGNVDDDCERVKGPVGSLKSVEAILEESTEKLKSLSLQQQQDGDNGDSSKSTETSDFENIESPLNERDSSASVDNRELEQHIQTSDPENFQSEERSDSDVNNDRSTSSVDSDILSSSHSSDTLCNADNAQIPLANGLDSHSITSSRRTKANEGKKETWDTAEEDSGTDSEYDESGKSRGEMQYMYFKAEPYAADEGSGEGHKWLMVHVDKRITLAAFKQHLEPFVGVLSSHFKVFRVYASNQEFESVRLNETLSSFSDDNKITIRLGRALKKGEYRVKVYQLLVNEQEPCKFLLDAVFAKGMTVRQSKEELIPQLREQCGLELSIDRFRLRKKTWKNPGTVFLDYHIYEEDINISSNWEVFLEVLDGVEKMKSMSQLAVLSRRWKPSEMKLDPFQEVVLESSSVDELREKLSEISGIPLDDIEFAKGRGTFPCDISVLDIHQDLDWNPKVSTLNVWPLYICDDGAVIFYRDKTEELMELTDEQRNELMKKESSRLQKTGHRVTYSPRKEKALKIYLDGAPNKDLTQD
- PROTOCOL: log2 ratio of Biotin-Ahx-Ub-VS probe labelling (fragment/DMSO); higher = less target engagement (more negative = stronger competition), active = hit call of the paper (q ≤ 0.05, log2 ratio ≤ -1)
- CONDITION_LABEL: compound concentration: 200 uM; treatment time: 3 h
Quick list: log2 ratio of Biotin-Ahx-Ub-VS probe labelling per entry.
MEASUREMENT_LABEL: log2 ratio of Biotin-Ahx-Ub-VS probe labelling

[[record]]
compound = "COCC1C=CCCN1C(=O)CCl (configuration not stated)"
result = "-0.789 (inactive)"

[[record]]
compound = "CS(=O)(=O)c1ccc(NC(=O)CCl)cc1"
result = "-0.0487 (inactive)"

[[record]]
compound = "O=C(CCl)Nc1cc(Cl)ccc1-n1cncn1"
result = "-0.4 (inactive)"

[[record]]
compound = "CC1CN(c2ccc(NC(=O)CCl)cc2)CC(C)O1 (configuration not stated)"
result = "-0.557 (inactive)"

[[record]]
compound = "NS(=O)(=O)c1ccc(Cl)c(NC(=O)CCl)c1"
result = "-0.247 (inactive)"

[[record]]
compound = "CN1C(=O)c2ccc(NC(=O)CCl)cc2C1=O"
result = "-0.217 (inactive)"

[[record]]
compound = "Cc1ccc(CN(CCO)C(=O)CCl)cc1"
result = "-0.828 (inactive)"

[[record]]
compound = "Cc1n[nH]c(=O)c2c(NC(=O)CCl)oc(C)c12"
result = "0.166 (inactive)"

[[record]]
compound = "Cc1noc(C)c1CNC(=O)CCl"
result = "0.0132 (inactive)"

[[record]]
compound = "Cc1ccccc1CN(C)C(=O)CCl"
result = "-1 (inactive)"

[[record]]
compound = "Cc1ccc(C)c(NC(=O)CCl)c1"
result = "-0.823 (inactive)"

[[record]]
compound = "Cl.O=C(CCl)NCCN1CCc2ccccc21"
result = "0.103 (inactive)"

[[record]]
compound = "CN(C)C(=O)c1ccc(CNC(=O)CCl)cc1"
result = "0.119 (inactive)"

[[record]]
compound = "Cl.O=C(CCl)N1CCn2cncc2C1"
result = "0.174 (inactive)"

[[record]]
compound = "COc1ccc(C2CCCN2C(=O)CCl)c(OC)c1 (configuration not stated)"
result = "-0.378 (inactive)"

[[record]]
compound = "COc1cccc(CN(C)C(=O)CCl)c1"
result = "-0.35 (inactive)"

[[record]]
compound = "COc1ccc(CN(C)C(=O)CCl)cc1"
result = "-0.0389 (inactive)"

[[record]]
compound = "O=C(CCl)N1CCN(c2nc3ccccc3o2)CC1"
result = "-0.362 (inactive)"

[[record]]
compound = "CN(Cc1nc2ccccc2[nH]1)C(=O)CCl.Cl"
result = "-0.178 (inactive)"

[[record]]
compound = "Cl.Cn1nc2c(c1CNC(=O)CCl)CCCC2"
result = "0.0138 (inactive)"

[[record]]
compound = "O=C(CCl)NC(Cn1ccccc1=O)c1ccccc1 (configuration not stated)"
result = "-0.4 (inactive)"

[[record]]
compound = "CC(NC(=O)CCl)c1cccc2ccccc12 (configuration not stated)"
result = "-0.308 (inactive)"

[[record]]
compound = "Cc1nc(CC2CCN(C(=O)CCl)CC2)no1"
result = "-0.726 (inactive)"

[[record]]
compound = "O=C(CCl)N1CCCCC12CCOCC2"
result = "-0.146 (inactive)"

[[record]]
compound = "O=C(CCl)NCc1ccc(N2CCOCC2)c(F)c1"
result = "0.00631 (inactive)"

[[record]]
compound = "O=C(CCl)Nc1cccc(NC(=O)c2ccccc2)c1"
result = "-0.303 (inactive)"

[[record]]
compound = "CNC(=O)C1CCN(C(=O)CCl)CC1"
result = "0.356 (inactive)"

[[record]]
compound = "Cl.Cn1ncc2c1CCCC2NC(=O)CCl (configuration not stated)"
result = "-1.12 (active)"

[[record]]
compound = "Cc1ccccc1OCC(=O)N1CCN(C(=O)CCl)CC1"
result = "-1.19 (active)"

[[record]]
compound = "O=C(CCl)N(C1=CCCCC1)C1CC1"
result = "-0.571 (inactive)"

[[record]]
compound = "C#Cc1cccc(NC(=O)CCl)c1"
result = "-0.468 (inactive)"

[[record]]
compound = "Cl.O=C(CCl)NCc1ccnc(Oc2ccccc2F)c1"
result = "-0.71 (inactive)"

[[record]]
compound = "O=C(CCl)Nc1ccc(N2CCCC2=O)cc1"
result = "0.214 (inactive)"

[[record]]
compound = "CC(NC(=O)CCl)c1ccc2[nH]ncc2c1 (configuration not stated)"
result = "0.0542 (inactive)"

[[record]]
compound = "O=C(CCl)NCc1ccc(N2CCOCC2)nc1"
result = "-0.466 (inactive)"

[[record]]
compound = "Cc1cccc(N(CCC#N)C(=O)CCl)c1C"
result = "-0.354 (inactive)"

[[record]]
compound = "N#Cc1ccc(CNC(=O)CCl)cc1"
result = "0.323 (inactive)"


meta.source: the supplement of paper PMC11732987
